- assay protocol: Human HepG2 cell viability assay in 384 well format
- Format: toxicity, cell-based
- Design: dose 125 nL, time 70.5 hour; concentration not given beside the values
- measurement conditions: HepG2 cells, read-out: Inhibition
molecules and their reported cytotoxicity at 70.5 h

molecule: CCOC(=O)CNc1nc(COC)nc2c1cnn2C
unit text: %
cytotoxicity at 70.5 h: -4.25
//
molecule: COc1ccc2c(c1)OCC(CNc1cc(N)nc(SC)n1)C2 (centres undefined)
unit text: %
cytotoxicity at 70.5 h: -0.598
//
molecule: Cc1ccc(F)c(NCc2ccc(C(=O)N(C)C)[nH]2)c1
unit text: %
cytotoxicity at 70.5 h: -3.46
//
molecule: CCS(=O)(=O)N1CC[C@]2(C[C@@H](OCC3CC3)CO2)C1
unit text: %
cytotoxicity at 70.5 h: -8.16
//
molecule: Cc1cc(N2CCC(NC(=O)CCc3ccco3)CC2)nc(C)n1
unit text: %
cytotoxicity at 70.5 h: 11.4
//
molecule: CCc1ccc(CN2CCc3c(nnn3C)C2COC)cc1 (centres undefined)
unit text: %
cytotoxicity at 70.5 h: -5.54
//
molecule: Cc1nc(C)c(CC(=O)N2C[C@@H](C(=O)O)[C@H](c3ccncc3)C2)s1
unit text: %
cytotoxicity at 70.5 h: -0.442
//
molecule: COc1ccccc1N1CCN(C(=O)Cn2nc(C)cc2C)CC1(C)C
unit text: %
cytotoxicity at 70.5 h: -14.1
//
molecule: Cc1c(Br)cccc1NC(=O)N(C)CCO
unit text: %
cytotoxicity at 70.5 h: -14.7
